# Assayed target: thrombin (alpha-thrombin) (human, UniProt P00734;P00734 328-363;364-622)
# Experimental details: capillary electrophoresis; simulated body plasma ionic buffer (SBP); exosite I; CE: 400 nM thrombin + 100 nM fluorescein-labeled aptamer in simulated body plasma ionic buffer (SBP; composition and pH not given in the material), 37 C for 2 m
Measured quantity: Kd (nM)
Report the value in nM with no unit label.

[Q] Please report the recorded Kd for GGTTGGTGTGGTTGG (structured_DNA) [HD1] .
[A] 258
